Values compiled from patent US20060079453A1.

In this section we review reported pIC50 values for a set of compounds.
target: HLA-DR DRB1*1501 (DR15) (Homo sapiens, UniProt P01903+P01911); experiment: biochemical; assay type: binding; settings: DRBI *1501
pIC50: −log10 of the molar value.
property-measured: pIC50

smiles-structure	property-measured	recorded-value
CC[C@H](C)[C@H](NC(=O)[C@H](CCC(=O)O)NC(=O)[C@H](CC(N)=O)NC(=O)CNC(=O)[C@H](CC(=O)O)NC(=O)[C@H](CCC(=O)O)NC(=O)[C@H](CC(N)=O)NC(=O)[C@@H](NC(=O)[C@@H](NC(=O)[C@H](CO)NC(=O)[C@@H](NC(=O)[C@@H](N)Cc1ccc(O)cc1)[C@@H](C)CC)[C@@H](C)CC)[C@@H](C)CC)C(=O)N[C@@H](Cc1ccccc1)C(=O)N[C@@H](CC(N)=O)C(=O)N[C@H](C(=O)O)[C@@H](C)O	pIC50	5.57
CSCC[C@H](NC(=O)[C@H](CC(C)C)NC(=O)[C@@H]1CCCN1C(=O)[C@@H](NC(=O)[C@@H](N)CS)[C@@H](C)O)C(=O)N[C@@H](Cc1ccc(O)cc1)C(=O)N[C@@H](CO)C(=O)N[C@@H](CC(C)C)C(=O)N[C@H](C(=O)N[C@@H](Cc1c[nH]cn1)C(=O)N[C@@H](CC(N)=O)C(=O)N[C@@H](CC(C)C)C(=O)N[C@H](C(=O)N[C@@H](CCCCN)C(=O)N[C@@H](CCC(=O)O)C(=O)O)[C@@H](C)O)C(C)C	pIC50	6.37
